# Tested on: Ba/F3 P210-BCR-ABL1 RUNX1wt/wt control (mouse)
# assay method text: drug sensitivity score (DSS) (DSS score); higher = more sensitive (stronger growth inhibition); extreme values may be limits of the assay
parameter: drug sensitivity score
Numbers only.

Known drug sensitivity score results, listed for orientation:
| compound | drug sensitivity score |
| --- | --- |
| CCOc1cc2ncc(C#N)c(Nc3ccc(OCc4ccccn4)c(Cl)c3)c2cc1NC(=O)/C=C/CN(C)C | 0 |
| COC(=O)C[C@](O)(CCCC(C)(C)O)C(=O)O[C@@H]1C(OC)=C[C@]23CCCN2CCc2cc4c(cc2[C@H]13)OCO4 | 28.8 |
| CC(O)c1cc(C(=O)N[C@@H](C)Cn2ccc(-c3ccc(C#N)c(Cl)c3)n2)n[nH]1 (some centres not stated) | 0 |
| Nc1cccc2c1CN(C1CCC(=O)NC1=O)C2=O (configuration not stated) [Lenalidomide] | 0 |
| Nc1nc2cc(-c3ccc4ncc(C(=O)N5CCOCC5)n4c3)ccc2o1 | 0 |
| CN(C(=O)c1ccc(F)cc1C(F)(F)F)C1CCN(c2nnc(-c3ccnn3C)c3ccccc23)CC1 | 0 |

Value sought for every listed compound: drug sensitivity score.
1. Cc1cn(-c2cc(NC(=O)c3ccc(C)c(Nc4nccc(-c5cccnc5)n4)c3)cc(C(F)(F)F)c2)cn1
2. CCCCOc1nc(N)c2c(n1)N(Cc1cccc(CN3CCCC3)c1)CC(=O)N2

[reply]
1: 28.6; 2: 1.65
